Tested on: DMS-273
Test method notes: NCI tumour cell line growth inhibition, 48 h
Calls of active or inactive are those of the source. Rule as the data show it: active = GI50 up to about 1.1 µM and inactive = higher. Non-standard residues stand in square brackets, D forms with d. Residues, ends and D or L forms follow the SMILES beside them. ξ: configuration not given here. Pen = CC(C)(S)[C@H](N)C(=O)O; ξL = CC(C)CC(N)C(=O)O
Just give me one of these, please: yes = active, no = inactive

Could you please tell me the result logged for "C=C(CS(=O)(=O)c1ccccc1)[P+](c1ccccc1)(c1ccccc1)c1ccccc1" in this assay?
no

Just curious, what result did Cc1ccc(NC(=O)/C(=N/NC(=O)CC#N)C2C(=O)N(c3ccccc3)N=C2N)cc1C (stereo unspecified) get here?
no

For this compound, state the assay outcome: CN(C)CCC1(C2=CCCC2)CC/C(=C\c2ccc(Cl)cc2)C1=O (stereo unspecified)
no

Please state the recorded outcome for this compound: CSCC[C@H](NC(=O)C(CC(C)C)NC(=O)[C@H](Cc1c[nH]cn1)NC(=O)CNC(=O)[C@@H](NC(=O)[C@@H](C)NC(=O)[C@H](Cc1c[nH]c2ccccc12)NC(=O)[C@H](CCC(N)=O)NC(=O)[C@@H](N)CC(N)=O)C(C)(C)SC)C(N)=O (stereo partly specified) (H-NQW[dA][Pen](Me)GH[ξL]M-NH2)
no

Called result for "COc1cc2cnc3c4cc(OC)c(OC(C)C)cc4ccc3c2cc1OC"
no

Identify the outcome logged in this assay for the compound shown: CCC(Oc1ccc(OC)c2ccccc(=O)c12)C(=O)O (stereo unspecified)
no

Each compound tested received a call. Report the one for "O=C(CC(=O)C(F)(F)F)c1csc2ccccc12" .
no

Identify the outcome logged in this assay for the compound shown: O=C1Nc2nc3ccccc3n2N=C2CCCC12 (stereo unspecified)
no

Called result for COC12OCCN(CCO)C1=CC(=O)C1(C)N=NC(C)C12 (stereo unspecified)
no

What outcome does the record of this test show for CC(=O)OCC1OC(Nc2ncc(-c3ccc(C)cc3)s2)C(OC(C)=O)C(OC(C)=O)C1OC(C)=O (stereo unspecified) ?
no

Please share the test call associated with CC12C3CC4C5CC(C(C53)[C@@H]1NCc1ccccc1)C42 (stereo partly specified) .
no

Query: recorded result category for CCC(C)C(=O)O[C@H]1C(=O)O[C@@H]2C[C@H]3C(C)=CC(=O)[C@@H](O)[C@]3(C)[C@H]3[C@@H](O)[C@H](O)[C@@]4(C)OC[C@]32[C@@H]14 (stereo partly specified) in this test
yes

For this compound, state the assay outcome: "CC[C@H]1CN2CCc3cc(OC)c(OC)cc3[C@@H]2C[C@@H]1C[C@H]1NCCc2cc(O)c(OC)cc21"
yes

Could you check what this test reported for "Cc1ccc(S(=O)(=O)OC2CC=CC2)cc1" ?
no

Assay outcome for "OCCCOC(c1ccccc1)(c1ccccc1)c1ccccc1" : what was it?
no

Per the records of this test, what outcome belongs to Cc1cc(O)c2c(c1O)C(=O)C13C(=C(O)C4C(O)C1C1C(O)C3C(O)=C3C(=O)c5c(O)cc(C)c(O)c5C(=O)C341)C2=O (stereo unspecified) ?
yes

Please let me know the test result on file for NCCCC(N)(C(=O)O)C(F)F (stereo unspecified) .
no

Record lookup: outcome of this test for "O=c1c(Cl)c(Cl)cnn1CCc1ccncc1" ?
no

Would you mind telling me which call this test gave "Cc1nc2ccccc2c(=O)n1NC(=S)Nc1ccccc1" ?
no

# lookup: test call for COC1OC(COCc2ccc(Cl)cc2)C(OCc2ccc(Cl)cc2)C1O (stereo unspecified)
no

Which outcome did this test record for the compound CCCCCCCCCCCCC(Br)C(=O)NCC(N)=O (stereo unspecified) ?
no

###

Test system: NCI-H23
Test method notes: NCI tumour cell line growth inhibition, 48 h
Calls of active or inactive are those of the source. Rule as the data show it: active = GI50 up to about 1.1 µM and inactive = higher.
Reported metric: GI50

Which GI50 is listed for O=C(CC(O)(c1ccccc1)c1ccc(Cl)cc1)NC(=O)c1ccccc1O (stereo not given) ?
6.5 µM (inactive)

Look up GI50: CC(C)(O)C1OCC(C2CCC3(C)C4=CCC5C(C)(C)C(O)CCC5(C)C4CCC23C)CC1O (stereo not given)
23.2 µM (inactive)

Consider the compound shown here: "O=C(c1ccc2ccccc2c1)C1(I)S(=O)(=O)OCCOS1(=O)=O" What is its recorded GI50?
> 100 µM (inactive)

Name the reported GI50 value associated with the compound "CC(C)=CCOc1cc(NC(=S)c2ccoc2C)ccc1Cl"
> 100 µM (inactive)

I have this compound here, "CC(=O)Oc1cccc2c1C(=O)C(Br)(Br)CCC2" , and I need its recorded GI50.
4.29 µM (inactive)

###

System: M14
Test method notes: NCI tumour cell line growth inhibition, 48 h
Activity calls are given as the source filed them. No stated cut-off is given here; in the data, active = GI50 up to about 1.1 µM and inactive = higher.
Reported metric: GI50

Please give the measured GI50 for this compound: O=C1C(Cl)C(c2cc3cc(Br)ccc3nc2Cl)N1c1ccc(F)c(Cl)c1 (stereo not given)
9.42 µM (inactive)

Reported GI50 for C/C(=N\OCC(O)CNCCSCc1ccccc1)c1ccccc1Cl (stereo not given) : what is it?
21.8 µM (inactive)

Given "COc1ccccc1N1C(=O)/C(=C/c2ccc(N(CCC#N)CCC#N)cc2C)N=C1c1cc([N+](=O)[O-])ccc1Cl" , state its recorded GI50.
68.2 µM (inactive)

Value lookup for GI50; key = "Cc1cc(=O)nc(S(=O)(=O)NC(=S)Nc2ccc(Cl)cc2)[nH]1"
> 100 µM (inactive)

Given the compound "S=C(NCCc1ccccn1)c1nc[nH]c1C(=S)NCCc1ccccn1" , what is its reported GI50?
31.9 µM (inactive)

I would be grateful if you could share the reported GI50 for "Sc1cnnc2ccc(Br)cc12" .
61 µM (inactive)

Which GI50 is reported for this compound? C[C@@H]1CC(=O)[C@@]2(C)[C@](O)(CCC3O[C@]32C)[C@@]12CC(c1ccoc1)OC2=O (stereo not given in full)
72.4 µM (inactive)

Returns the measured GI50 for the input compound. Input: "CCc1cc(CCC(=O)Nc2ccccc2[N+](=O)[O-])nc(S)n1"
> 100 µM (inactive)

What does the data say about its GI50? Entry: "c1ccc(OCc2nnc(CCCCCCCCc3nnc(COc4ccccc4)o3)o2)cc1"
> 100 µM (inactive)

// lookup GI50 for CC12CCC(=O)[C@@]1(C)CCCC2O (stereo not given in full)
> 100 µM (inactive)

###

Test system: LXFL 529
Test method notes: NCI tumour cell line growth inhibition, 48 h
The source made the active and inactive calls. Rule as the data show it: active = GI50 up to about 1.1 µM and inactive = higher.
Kindly state GI50 for each of the entries shown.

Suppose we examine the molecule "C[n+]1[se]c2ccccc2c1Cl" ; what GI50 value has been reported?
28.1 µM (inactive)

Record request: GI50 value, item "O=C(CC(=O)C(F)(F)F)c1csc2ccccc12"
21.7 µM (inactive)

Bench note: what GI50 did COC12OCCN(CCO)C1=CC(=O)C1(C)N=NC(C)C12 (stereo unspecified) show?
> 100 µM (inactive)

I have this molecule here, CC(=O)O.CN1CCN(CN2C(=O)C3C4C=CC(C3C2=O)C2C3C(=O)N(CN5CCN(C)CC5)C(=O)C3C42)CC1 (stereo unspecified) , and I need its recorded GI50.
18.1 µM (inactive)

Request the reported GI50 associated with "COc1ccccc1/C=N/N=C(\N)NO"
3.3 µM (inactive)

Given the entry "O=C(CNc1ccc2c(=S)c3ccccc3[nH]c2c1)Nc1ccccc1-c1ccccc1NC(=O)CNc1ccc2c(=S)c3ccccc3[nH]c2c1" , report its measured GI50.
7.45 µM (inactive)

Item "CC(C)(CN1CCCCC1)C(=O)/C=C/c1ccc(Cl)cc1" has what recorded GI50?
2.54 µM (inactive)

What GI50 value was documented for this molecule, CC(O)CN1C(=O)NC(Cc2ccccc2)C1=O (stereo unspecified) ?
> 100 µM (inactive)

Form field: reported GI50 of C[n+]1ccc(-c2cc[n+](C)cc2)cc1 [PARAQUAT DICHLORIDE]
> 37.1 µM (inactive)

Return reported GI50; argument: O=C(CC(O)(c1ccccc1)c1ccc(Cl)cc1)NC(=O)c1ccccc1O (stereo unspecified)
4.35 µM (inactive)

# get_value(readout='GI50', item= "COc1ccc(OCC(=O)O)c(C(=O)CCC(=O)O)c1" )
> 100 µM (inactive)

###

Tested on: SF-295
Test method notes: NCI tumour cell line growth inhibition, 48 h
Activity calls are given as the source filed them. No stated cut-off is given here; in the data, active = GI50 up to about 1.1 µM and inactive = higher. Non-standard residues stand in square brackets, D forms with d. Residues, ends and D or L forms follow the SMILES beside them. ξ: configuration not given here. Pen = CC(C)(S)[C@H](N)C(=O)O; ξL = CC(C)CC(N)C(=O)O
I would appreciate it if you answered using one of these outcomes: y (active), n (inactive)

Give the logged outcome of this assay for the following compound: COc1cc(C2c3cc4c(cc3OC(NNC(N)=S)C2C)OCO4)cc(OC)c1OC (stereo unspecified)
y

Each compound tested received a call. Report the one for "CCc1n[nH]c(=O)n1-c1ccncc1" .
n

Dear all, I need the recorded test outcome for "CCOC(=O)C1=NN(c2ccc(Cl)cc2)C2=CC(C)=NN(C)C(=S)N21" , thank you.
n

What is the recorded call for this compound in the test? "C=C1C[C@@H](O)C[C@@]2(C)C[C@@H]3OC(=O)C(=C)[C@@H]3C[C@H]12"
n

Outcome? "Nc1nc(N)c2nn(-c3ccc(C(=O)O)cc3)nc2n1"
n

Hey, what did the test say about O=C(/C=C/c1ccc(O)cc1)NCCc1ccc(O)cc1 [N-P-COUMAROYL TYRAMINE] ?
n

Each compound tested received a call. Report the one for "c1ccc2c(c1)SCCc1cn[nH]c1-2" .
n

Would you mind telling me which call this test gave O=CN/C=C/c1cc(O)ccc1O [ERBSTATIN] ?
n

Test call, this compound: O=C1C2C3C=C4c5ccccc5N(c5ccccc5)C4(C2C(=O)N1Cc1ccccc1)C1C(=O)N(Cc2ccccc2)C(=O)C31 (stereo unspecified)
n

Answer briefly: the call reported for "CC(=O)Nc1cc(N(CCOS(C)(=O)=O)CCOS(C)(=O)=O)ccc1N=O" in this assay.
n

For CC(C)(O)C1CC(=O)C(C)(C2C(O)CC3(C)C4CC=C5C(CCC(O)C5(C)C)C4(C)C(=O)CC23C)O1 (stereo unspecified) , what call appears in the results of this test?
n

Please state the recorded outcome for this compound: CN1CCOC1(C)c1ccccc1 (stereo unspecified)
n

Could you kindly confirm the outcome this assay logged for CCCCCCCCOCC(O)CO (stereo unspecified) ?
n

Query: recorded result category for "Cc1cc(=O)nc(S(=O)(=O)NC(=S)Nc2ccc(Cl)cc2)[nH]1" in this test
n

Status in this test for "O=C1c2ccccc2-c2ccc(/N=N/c3c(O)ccc4ccccc34)cc21" ?
n

Short answer needed: outcome of this test for "Cc1ccc(C(=O)/C=C2\Nc3ccccc3NC2=O)cc1" ?
n

Returns: the outcome recorded for "COc1ccc2nc3ccc(OC)cc3c(SCCO)c2c1" in this assay.
n

I would be grateful if you could indicate the recorded call for COC(=O)C12C3C4(C(=O)OC)C1C1(C(=O)OC)C2C3(C(=O)OC)C41C(=O)N(C(C)C)C(C)C (stereo unspecified) .
n

Lab log entry: COc1ccccc1C1Nn2c(nc3ccccc3c2=O)N1c1ccc(C)cc1 (stereo unspecified) — outcome as called in the assay?
n

// outcome(item) with item = COC12OCCN(CCO)C1=CC(=O)C1(C)N=NC(C)C12 (stereo unspecified)
n

What was the test verdict on "C=C1CCCCCCCCC/C=C/1SCCCSC" ?
n

Please let me know the test result on file for "COc1c2c(cc3c(CCc4ccccc4)cc(=O)oc13)CCC(C)(C)O2" .
n

What did the test return for CC12C3CC4C5CC(C(C53)[C@@H]1NCc1ccccc1)C42 (stereo partly specified) ?
n

Assay outcome for COC(=O)C(/C(=N/NC(N)=S)C(=O)Nc1ccccc1[N+](=O)[O-])c1cnc2ccccc2n1 (stereo unspecified) : what was it?
n

Please share the test call associated with "Cc1cc(=O)n2nc(CCl)sc2n1" .
n

Tell me the assay call for "N=C(N)c1ccc(/N=N\c2c(O)ccc3c2[nH]c2ccccc23)cc1" please.
n

Fill in: this test's call for CC(C)=CCOc1cc(NC(=S)c2ccoc2C)ccc1Cl [UC 781] is ___
n

Record lookup: outcome of this test for "COc1cc(OC)c(-c2ccc(OCc3ccccc3)c3c(OC)cc(C)cc23)c2c1C(C)=N[C@H](C)C2" ?
n

Recorded call for "O=c1c(Cl)c(Cl)cnn1CCc1ccncc1" ?
n

How did this test come out for "COc1ccc(C(=O)Nc2ccc(O)c(=O)cc2)cc1" ?
n

What did this assay record as the result for "CN(C)c1n/c(=N/Cc2cccnc2)ss1" ?
n

I would be grateful if you could indicate the recorded call for CSCC[C@H](NC(=O)C(CC(C)C)NC(=O)[C@H](Cc1c[nH]cn1)NC(=O)CNC(=O)[C@@H](NC(=O)[C@@H](C)NC(=O)[C@H](Cc1c[nH]c2ccccc12)NC(=O)[C@H](CCC(N)=O)NC(=O)[C@@H](N)CC(N)=O)C(C)(C)SC)C(N)=O (stereo partly specified) (H-NQW[dA][Pen](Me)GH[ξL]M-NH2) .
n

Please state the recorded outcome for this compound: CC(=O)OCC1OC(Nc2ncc(-c3ccc(C)cc3)s2)C(OC(C)=O)C(OC(C)=O)C1OC(C)=O (stereo unspecified)
n

Given C=C(C)CC1=C(OCC)C(OC)(OCC)C1=O (stereo unspecified) , state the outcome it received in this test.
n

Please let me know the test result on file for "COc1ccc(C(=C2C(=O)N(c3ccccc3)C(=O)C2=C(C)C)c2ccc(OC)cc2)cc1" .
n

Test call for this compound, please: Cc1cc(C)c2c(c1)Nc1ccccc1P2c1ccccc1 (stereo unspecified)
n

What outcome does the record of this test show for CCCCCCCCCCC(O)C1CCC(C(O)CCC(O)C2CCC(CCCCCCC[C@H](O)CC3=C[C@@H](C)OC3=O)O2)O1 (stereo partly specified) ?
y

Give the logged outcome of this assay for the following compound: "CC1=NN(c2nc(N)nc(/C(C#N)=C/c3ccccc3O)n2)C(C)(C)C1"
n

Recorded test call requested for "Cc1ccc(N(C)S(=O)(=O)c2ccc([N+](=O)[O-])cc2)cc1"
n

Please share the test call associated with Cc1ccccc1N1C(N)=C(C#N)C(C#N)(C#N)C1c1ccccc1 (stereo unspecified) .
n

Per the assay record, what outcome was assigned to Cc1ccc(S(=O)(=O)N/N=C2\CC3CC4CCC2C4C3)cc1 (stereo unspecified) ?
n
